Test system: Danio rerio Tg(wt1b:EGFP) embryo, pronephros
Experiment: pronephric angle neck segment to proximal convoluted tubule (mean of left and right), fold change vs DMSO control; higher = larger pronephric angle
Conditions: 25 µM; exposure: 24-48 hpf
Where a name gives a salt, the structure may show the parent alone.
assayReadout: pronephric angle neck segment

In the examples that follow, each entry is paired with its recorded pronephric angle neck segment.
molecule	observedResult
O=C(O)CCC(=O)Nc1ccc(S(=O)(=O)Nc2nccs2)cc1	0.997
Nc1nc(=O)c2c([nH]1)NC[C@@H](CNc1ccc(C(=O)N[C@@H](CCC(=O)O)C(=O)O)cc1)N2C=O [Folinic acid calcium salt]	0.979
CC(C)CN(C[C@@H](O)[C@H](Cc1ccccc1)NC(=O)O[C@H]1CO[C@H]2OCC[C@H]21)S(=O)(=O)c1ccc(N)cc1	0.96
CCc1ccc(CCOc2ccc(CC3SC(=O)NC3=O)cc2)nc1 (stereo not drawn)	1.03
NS(=O)(=O)c1cc2c(cc1Cl)NC(C(Cl)Cl)NS2(=O)=O (stereo not drawn) [Trichlormethiazide]	0.899

Exercise: Tell me reported pronephric angle neck segment for `NC(N)=Nc1nc(CSCC/C(N)=N/S(N)(=O)=O)cs1` , tested with Danio rerio Tg(wt1b:EGFP) embryo, pronephros.
Key: 0.98

Exercise: Please do the same for CSc1ccc2c(c1)N(CCC1CCCCN1C)c1ccccc1S2 (stereo not drawn) [Thioridazine hydrochloride] as well.
Key: 0.999

Exercise: `CC(=O)Oc1cccc2c1C(=O)c1c(OC(C)=O)cc(C(=O)O)cc1C2=O` , same question.
Key: 1.02

Exercise: Continue with `Cc1cnc(NC(=O)C2=C(O)c3ccccc3S(=O)(=O)N2C)s1`
Key: 1.76

Exercise: For Cc1onc(-c2ccccc2Cl)c1C(=O)N[C@@H]1C(=O)N2[C@@H]1SC(C)(C)[C@@H]2C(=O)O [Cloxacillin sodium salt] then?
Key: 1

Exercise: Request: CN(C)[C@@H]1C(O)=C(C(N)=O)C(=O)[C@@]2(O)C(O)=C3C(=O)c4c(O)cccc4[C@@](C)(O)[C@H]3C[C@@H]12 [Tetracycline hydrochloride]
Key: 0.972

Exercise: And for `CC[C@H]1OC(=O)[C@H](C)[C@@H](O[C@H]2C[C@@](C)(OC)[C@@H](O)[C@H](C)O2)[C@H](C)[C@@H](O[C@@H]2O[C@H](C)C[C@H](N(C)C)[C@H]2O)[C@](C)(O)C[C@@H](C)CN(C)[C@H](C)[C@@H](O)[C@]1(C)O` ?
Key: 1.01

Data origin: the supplement of paper PMC7366291
